# Test system: ATPase activity endogenous to L929 cell lysate
# test_protocol: Detergent inhibition of ATPase endogenous to L929 cell lysate (ATP remaining by luciferase luminescence, 22° C.)
# Assay type: biochemical
# Design: key: slope with detergent / slope without; ≥1.0 = 100% activity, 0.5 = 50%
# experimental_context: 1.00 percent detergent
Mark T for reported Relative ATPase Activity, slope det/slope lysate of 0.7 or greater; mark F for anything smaller.

compound=CCCCCCCCCCCC[N+](C)(C)CCCS(=O)(=O)[O-] assigned_label=F
compound="CCCCCCCCCCCC[N+](C)(C)C.[Br-] [DTAB, dodecyltrimethylammonium bromide]" assigned_label=F

Moving on to the next compound.
Quick check, Relative ATPase Activity, slope det/slope lysate >= 0.7? C[C@H](CCC(=O)N(CCCNC(=O)[C@H](O)[C@@H](O)[C@H](O)[C@H](O)CO)CCCNC(=O)[C@H](O)[C@@H](O)[C@H](O)[C@H](O)CO)[C@H]1CC[C@H]2[C@@H]3[C@H](O)C[C@@H]4C[C@H](O)CC[C@]4(C)[C@H]3C[C@H](O)[C@]12C [BIGCHAP, N,N-bis(3-D-Gluconamidopropyl)cholamide]
T
